- Tested on: adjuvant-associated biological themes in LV, SP, LN
- reported.conditions: LV, ID
property.name: GO annotation: cytokine metabolic process (Term: cytokine)

Recorded result, Nc1nc2c(ncn2[C@@H]2O[C@@H]3COP(=O)(O)O[C@H]4[C@@H](O)[C@H](n5cnc6c(=O)[nH]c(N)nc65)O[C@@H]4COP(=O)(O)O[C@H]3[C@H]2O)c(=O)[nH]1 [cdiGMP, Cyclic diguanylate monophosphate] , GO annotation: cytokine metabolic process (Term: cytokine): 7.39

Recorded result, CC(O)COC[C@H]1O[C@@H]2O[C@H]3[C@H](O)[C@@H](O)[C@@H](O[C@H]4[C@H](O)[C@@H](O)[C@@H](O[C@H]5[C@H](O)[C@@H](O)[C@@H](O[C@H]6[C@H](O)[C@@H](O)[C@@H](O[C@H]7[C@H](O)[C@@H](O)[C@@H](O[C@H]8[C@H](O)[C@@H](O)[C@@H](O[C@H]1[C@H](O)[C@H]2O)O[C@@H]8COCC(C)O)O[C@@H]7COCC(C)O)O[C@@H]6COCC(C)O)O[C@@H]5COCC(C)O)O[C@@H]4COCC(C)O)O[C@@H]3COCC(C)O (stereo partly drawn) [bCD, Hydroxypropyl-beta-cyclodextrin] , GO annotation: cytokine metabolic process (Term: cytokine): 0

Recorded result, Nc1nc2c(ncn2[C@@H]2O[C@@H]3COP(=O)(O)O[C@H]4[C@@H](O)[C@H](n5cnc6c(N)ncnc65)O[C@@H]4COP(=O)(O)O[C@@H]2[C@@H]3O)c(=O)[nH]1 [cGAMP, Cyclic [G(2′,5′)pA(3′,5′)p]] , GO annotation: cytokine metabolic process (Term: cytokine): 8.21

Recorded result, Cc1ccc2c(=O)c3cccc(CC(=O)O)c3oc2c1C , GO annotation: cytokine metabolic process (Term: cytokine): 0

---

- System: preferentially upregulated genes in LV, SP, LN
- test.summary: Z-score-based differential gene expression analysis (adjuvant group- or adjuvant-associated genes, 40 module mapping, TargetMine annotation)
- Format: in vivo, C57BL/6 mice
- reported.conditions: ID, LV, sample x2
property.name: Ddx58 1436562_at (Group G1, Modules 20)
Returns: the value as a bare number; no unit string appended.

Recorded result, Cc1ccc2c(=O)c3cccc(CC(=O)O)c3oc2c1C , Ddx58 1436562_at (Group G1, Modules 20): 1.54

Recorded result, Nc1nc2c(ncn2[C@@H]2O[C@@H]3COP(=O)(O)O[C@H]4[C@@H](O)[C@H](n5cnc6c(=O)[nH]c(N)nc65)O[C@@H]4COP(=O)(O)O[C@H]3[C@H]2O)c(=O)[nH]1 [cdiGMP, Cyclic diguanylate monophosphate] , Ddx58 1436562_at (Group G1, Modules 20): 0.88

Recorded result, CCOCc1nc2c(N)nc3ccccc3c2n1CC(C)(C)O , Ddx58 1436562_at (Group G1, Modules 20): 2.33

Recorded result, Nc1nc2c(ncn2[C@@H]2O[C@@H]3COP(=O)(O)O[C@H]4[C@@H](O)[C@H](n5cnc6c(N)ncnc65)O[C@@H]4COP(=O)(O)O[C@@H]2[C@@H]3O)c(=O)[nH]1 [cGAMP, Cyclic [G(2′,5′)pA(3′,5′)p]] , Ddx58 1436562_at (Group G1, Modules 20): 2.13

---

- Tested on: adjuvant-associated biological themes in LV, SP, LN
- reported.conditions: LV, ID
property.name: GO annotation: cell chemotaxis (Term: chemotaxis)

Recorded result, CC(O)COC[C@H]1O[C@@H]2O[C@H]3[C@H](O)[C@@H](O)[C@@H](O[C@H]4[C@H](O)[C@@H](O)[C@@H](O[C@H]5[C@H](O)[C@@H](O)[C@@H](O[C@H]6[C@H](O)[C@@H](O)[C@@H](O[C@H]7[C@H](O)[C@@H](O)[C@@H](O[C@H]8[C@H](O)[C@@H](O)[C@@H](O[C@H]1[C@H](O)[C@H]2O)O[C@@H]8COCC(C)O)O[C@@H]7COCC(C)O)O[C@@H]6COCC(C)O)O[C@@H]5COCC(C)O)O[C@@H]4COCC(C)O)O[C@@H]3COCC(C)O (stereo partly drawn) [bCD, Hydroxypropyl-beta-cyclodextrin] , GO annotation: cell chemotaxis (Term: chemotaxis): 5.73

Recorded result, Nc1nc2c(ncn2[C@@H]2O[C@@H]3COP(=O)(O)O[C@H]4[C@@H](O)[C@H](n5cnc6c(=O)[nH]c(N)nc65)O[C@@H]4COP(=O)(O)O[C@H]3[C@H]2O)c(=O)[nH]1 [cdiGMP, Cyclic diguanylate monophosphate] , GO annotation: cell chemotaxis (Term: chemotaxis): 0

Recorded result, Cc1ccc2c(=O)c3cccc(CC(=O)O)c3oc2c1C [DMXAA, 5,6-dimethylxanthenone-4-acetic acid] , GO annotation: cell chemotaxis (Term: chemotaxis): 0

Recorded result, Nc1nc2c(ncn2[C@@H]2O[C@@H]3COP(=O)(O)O[C@H]4[C@@H](O)[C@H](n5cnc6c(N)ncnc65)O[C@@H]4COP(=O)(O)O[C@@H]2[C@@H]3O)c(=O)[nH]1 [cGAMP, Cyclic [G(2′,5′)pA(3′,5′)p]] , GO annotation: cell chemotaxis (Term: chemotaxis): 4.4

All figures here come from patent US20230021483A1.
